# measurement.notes: Confirmation Concentration-Response Assay for lipid storage modulators: for probe SAR
# test.conditions: Drosophila S3 cells, BODIPY lipid droplet fluorescence, 18-24 h; series mostly up to 46.1 µM
Inconclusive results are not listed. Active and inactive are the calls of the source. Calls follow the shape of the dose curve; as a rule, active = well fitted inhibition curve with a large enough effect; inconclusive = small, poorly fitted or top-dose-only effect, or effect the other way; inactive = no such curve, though single readings can be large or run the other way.
Answer with one of the outcomes given here: active, inactive

>  <molecule>
COc1ccc(CCNC(=O)c2cc3sccc3n2Cc2ccc(F)cc2)cc1OC

>  <cat>
active

$$$$

What call does the record list for CCOC(=O)C1CCCN(C(=O)C2(NC(=O)Nc3ccc(F)cc3F)CCCCC2)C1 (stereo not given) ?
inactive

What call does the record list for `CC1(C)CCC(c2ccc(Cl)cc2)=C(CN2CCN(c3ccc(C(=O)NS(=O)(=O)c4ccc(N[C@H](CCN5CCOCC5)CSc5ccccc5)c(S(=O)(=O)C(F)(F)F)c4)cc3)CC2)C1` ?
active

What call does the record list for O=C(NC1CCCc2c1cnn2-c1cc(F)cc(F)c1)c1ccc(F)cc1Cl (stereo not given) ?
active

What call does the record list for `Cc1cc(SCc2sc(-c3ccc(C(F)(F)F)cc3)nc2C)ccc1OCC(=O)O` ?
inactive

What call does the record list for `COc1ccc(CCNC(=O)c2cc3sccc3n2Cc2ccc(Cl)cc2)cc1OC` ?
active

What call does the record list for `CCOc1ccc(CCNC(=O)c2cc3sccc3n2Cc2ccc(-n3cncn3)cc2)cc1OCC` ?
active

What call does the record list for `O=C(CSc1nnc(NCc2ccccc2)s1)Nc1nc(-c2ccc(F)c(F)c2)cs1` ?
active

What call does the record list for O=C(NC1CCCc2c1cnn2-c1ccc(F)cc1F)c1cccs1 (stereo not given) ?
active

What call does the record list for `O=C(CSc1nnc(NCc2ccccc2)s1)Nc1nc(-c2cccc(Br)c2)cs1` ?
active

====

# measurement.notes: Confirmation Concentration-Response Assay for lipid storage modulators: for probe SAR
# test.conditions: Drosophila S3 cells, BODIPY lipid droplet fluorescence, 18-24 h; series mostly up to 46.1 µM
Records with an inconclusive call do not appear. Activity calls are given as the source filed them. Calls come from the whole dose curve; as a rule, active = well fitted inhibition curve with a large enough effect; inconclusive = small, poorly fitted or top-dose-only effect, or effect the other way; inactive = no such curve, though single readings can be large or run the other way.
attribute.measured: Potency

Here is how some compounds turned out for Potency.
>  <compound>
O=C(NC1CCCc2c1cnn2-c1ccccc1F)c1ccc2ncccc2c1 (stereo unspecified)

>  <data.value>
2.23 µM (active)

$$$$
>  <compound>
CCOc1ccc(CCNC(=O)c2cc3sc(Cl)cc3n2CC)cc1OCC

>  <data.value>
2.23 µM (active)

$$$$
>  <compound>
Cc1cccc(Nc2nnc(SCC(=O)Nc3nc(-c4ccc(F)cc4)cs3)s2)c1

>  <data.value>
0.628 µM (active)

$$$$
>  <compound>
O=C(NC1CCCc2c1cnn2-c1ccc(F)cc1F)c1cccc(Cn2cccn2)c1 (stereo unspecified)

>  <data.value>
0.125 µM (active)

$$$$
>  <compound>
CCOc1ccc(CCNC(=O)C2COc3ccccc3O2)cc1OCC (stereo unspecified)

>  <data.value>
11.2 µM (active)

$$$$

Which measured Potency value corresponds to `O=C(NCCc1ccc2c(c1)OCO2)c1cc2sccc2n1Cc1ccccc1` ?
inactive

Which measured Potency value corresponds to O=C(NC1CCCc2c1cnn2-c1ccc(F)cc1F)c1cccc(F)c1F (stereo unspecified) ?
0.315 µM (active)

Which measured Potency value corresponds to O=C(NC1CCCc2c1cnn2-c1ccc(F)cc1F)c1ccc[n+]([O-])c1 (stereo unspecified) ?
inactive

Which measured Potency value corresponds to O=C(Cc1ccccc1)NC1CCCc2c1cnn2-c1ccc(F)cc1F (stereo unspecified) ?
inactive

Which measured Potency value corresponds to CC1=C(C(=O)NC2CCCc3c2cnn3-c2ccc(F)cc2F)OCCO1 (stereo unspecified) ?
0.0158 µM (active)

Which measured Potency value corresponds to O=C(NC1CCCc2c1cnn2-c1ccc(F)cc1F)c1c(F)cccc1Cl (stereo unspecified) ?
3.53 µM (active)
